ASSAY TARGET: Porcine Ventricle myofibrils (left ventricle of Yucatan minipigs) (Sus scrofa, UniProt P79293)
Construct: Myofibrils from porcine cardiac muscle was isolated from the left ventricle of Yucatan minipigs; tissue Exemplar Genetics; host or cells: left ventricle of Yucatan minipigs
Sequence (P79293 whole entry): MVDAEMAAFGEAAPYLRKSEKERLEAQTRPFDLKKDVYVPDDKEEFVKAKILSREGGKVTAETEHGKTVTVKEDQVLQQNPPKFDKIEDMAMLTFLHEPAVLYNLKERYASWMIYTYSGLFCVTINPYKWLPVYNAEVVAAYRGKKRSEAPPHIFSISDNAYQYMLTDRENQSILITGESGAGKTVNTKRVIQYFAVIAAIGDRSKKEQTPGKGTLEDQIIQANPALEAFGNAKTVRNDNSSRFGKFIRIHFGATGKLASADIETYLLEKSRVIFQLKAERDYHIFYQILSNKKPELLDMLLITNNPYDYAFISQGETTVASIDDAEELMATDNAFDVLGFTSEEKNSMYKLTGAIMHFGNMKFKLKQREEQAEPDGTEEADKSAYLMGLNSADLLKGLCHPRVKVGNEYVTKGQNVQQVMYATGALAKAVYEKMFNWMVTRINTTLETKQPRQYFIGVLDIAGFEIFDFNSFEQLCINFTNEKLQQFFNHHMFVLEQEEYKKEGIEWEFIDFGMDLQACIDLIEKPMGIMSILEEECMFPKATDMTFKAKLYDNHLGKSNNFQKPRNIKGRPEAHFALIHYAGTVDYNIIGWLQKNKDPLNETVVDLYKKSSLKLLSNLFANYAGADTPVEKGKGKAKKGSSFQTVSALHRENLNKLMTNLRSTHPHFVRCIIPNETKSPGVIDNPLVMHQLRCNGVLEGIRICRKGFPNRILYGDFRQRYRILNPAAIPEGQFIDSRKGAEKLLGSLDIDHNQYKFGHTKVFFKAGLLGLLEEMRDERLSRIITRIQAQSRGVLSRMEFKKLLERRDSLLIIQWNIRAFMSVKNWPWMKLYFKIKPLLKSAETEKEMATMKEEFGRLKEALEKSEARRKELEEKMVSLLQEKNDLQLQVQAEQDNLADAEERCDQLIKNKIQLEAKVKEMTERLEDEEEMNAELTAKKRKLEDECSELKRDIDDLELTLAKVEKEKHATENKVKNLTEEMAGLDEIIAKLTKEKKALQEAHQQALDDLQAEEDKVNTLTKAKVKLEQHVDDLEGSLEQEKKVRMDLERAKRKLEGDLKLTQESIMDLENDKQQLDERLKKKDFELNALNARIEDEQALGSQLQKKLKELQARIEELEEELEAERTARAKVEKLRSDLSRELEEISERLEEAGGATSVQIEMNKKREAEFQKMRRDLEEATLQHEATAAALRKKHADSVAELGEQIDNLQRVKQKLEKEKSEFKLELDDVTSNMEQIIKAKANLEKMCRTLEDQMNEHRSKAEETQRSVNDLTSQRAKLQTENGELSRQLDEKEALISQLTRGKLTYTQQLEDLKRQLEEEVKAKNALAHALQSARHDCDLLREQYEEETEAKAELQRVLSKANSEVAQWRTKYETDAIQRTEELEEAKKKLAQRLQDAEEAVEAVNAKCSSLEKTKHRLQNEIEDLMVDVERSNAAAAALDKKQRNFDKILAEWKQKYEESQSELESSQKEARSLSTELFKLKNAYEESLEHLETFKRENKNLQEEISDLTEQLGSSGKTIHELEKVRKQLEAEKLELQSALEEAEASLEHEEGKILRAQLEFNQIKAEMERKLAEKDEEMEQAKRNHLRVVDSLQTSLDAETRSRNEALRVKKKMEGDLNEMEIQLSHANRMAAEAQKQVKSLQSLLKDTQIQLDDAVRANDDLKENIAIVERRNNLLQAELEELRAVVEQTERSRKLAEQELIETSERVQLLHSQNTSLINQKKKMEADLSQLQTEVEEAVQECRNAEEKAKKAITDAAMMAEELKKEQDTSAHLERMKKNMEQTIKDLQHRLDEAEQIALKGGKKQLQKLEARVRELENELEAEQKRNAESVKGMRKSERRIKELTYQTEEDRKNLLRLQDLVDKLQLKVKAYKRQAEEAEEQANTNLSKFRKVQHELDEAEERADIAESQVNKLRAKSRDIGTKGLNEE
PROTOCOL: Myofibril ATPase assay (PK/LDH NADH-coupled), ventricle myofibrils
Assay type: biochemical
SETTINGS: Table 8
Procedure: Myofibril ATPase assays are known in the art to be useful in evaluating small molecules for the treatment of HCM and other cardiac indications. Myosin ATPase activity is assessed by using a coupled reaction system, in which ADP generated by the myosin ATPase function is coupled to the disappearance of NADH through the pyruvate kinase/lactate dehydrogenase (PK-LDH) system. ATPase activity produces ADP, which is used as a substrate for PK to produce pyruvate and regenerate ATP. […]
METRIC NAME: Porcine Ventricle IC25 (µM)

Sample answers from the record:
> print(dat)
                                   compound  scale.unit  assay.result
1  CC(NC(=O)CN1Cc2cc(F)ccc2NC1=O)c1ccccc1Br (centres unmarked) [Compound B202]          µM         1.035
2  Cc1cccnc1[C@H](C)NC(=O)CN1Cc2c(ccc(F)c2F)NC1=O [Compound B183]          µM           100
3  O=C(CN1C(=O)Nc2ccc(F)c(F)c2C12CC2)N[C@@H]1COc2cc(F)cnc21 [Compound B296]          µM          0.39
4  N#Cc1cnc2c(c1)OC[C@H]2NC(=O)CN1Cc2c(ccc(F)c2F)NC1=O [Compound B64]          µM        0.5798

[1] N#Cc1cnc2c(c1)CC[C@@H]2NC(=O)CN1C(=O)Nc2ccc(F)cc2C12CC2 [Compound B295]
[2] C[C@H](NC(=O)CN1Cc2c(ccc(F)c2F)NC1=O)c1nnc2c(Cl)cc(C(F)(F)F)cn12 [Compound B98]
Consider entries 1 and 2 . Which has the numerically lower Porcine Ventricle IC25? Lab note: record the label of whichever item you select.
1
(1: 0.35 µM, 2: 72.38 µM)

[a] Cc1cc(F)cc2c1NC(=O)N(CC(=O)N[C@@H](C)c1ccc(C#N)cc1F)C2 [Compound B59]
[b] COc1cnc([C@H](C)NC(=O)CN2Cc3cc(F)ccc3NC2=O)c(F)c1 [Compound B179]
Smaller Porcine Ventricle IC25 value, a vs b ? Mark your answer with the label of the selected entry.
a
(a: 0.9519 µM, b: 100 µM)

###

Tested on: Porcine Atria myofibrils
PROTOCOL: Myofibril ATPase assay (PK/LDH NADH-coupled), atria myofibrils
Format: biochemical
SETTINGS: Table 8
Experimental: Myofibril ATPase Assay Procedure: BSA, ATP, NADH, PEP, and DTT solutions were thawed at room temperature, then transferred to ice. […] 25 μL of Buffer A was dispensed into the wells, followed by 25 μL of Buffer B. The wells were measured for absorbance at 340 nm, using a kinetic protocol in which the wells are read every 1.5-2 min for 75 min. […] In addition to the fit parameters, the EC25% is calculated, relative to the 100% normalized value. […]
METRIC NAME: Porcine Atria IC25 (nM)

> print(dat)
                                   molecule  scale.unit  assay.result
1  COc1cccnc1[C@H](C)NC(=O)CN1Cc2cc(F)ccc2NC1=O [Compound B187]          nM         68800
2  C[C@H](NC(=O)CN1Cc2c(ccc(F)c2C#N)NC1=O)c1ncc(C#N)cc1F [Compound B132]          nM            80
3  O=C(CN1Cc2c(ccc(F)c2F)NC1=O)N[C@H]1CCc2cc(F)cnc21 (single isomer, unassigned) [Compound B351]          nM        100000
4  C[C@@H](NC(=O)CN1Cc2c(ccc(F)c2F)NC1=O)c1ncc(F)cc1Cl [Compound B36]          nM            20
5  C[C@H]1c2ccccc2NC(=O)N1CC(=O)N[C@@H](CO)c1ncc(F)cc1F [Compound B166]          nM         51600
6  C[C@H](NC(=O)CN1Cc2cc(F)ccc2NC1=O)c1ccc(F)cc1F [Compound B247]          nM            60

[I] C[C@@H](NC(=O)CN1Cc2c(ccc(F)c2F)NC1=O)c1ncc(C#N)cc1F [Compound B141]
[II] C[C@H](NC(=O)CN1Cc2c(ccc(F)c2F)NC1=O)c1ccc(C#N)cc1F [Compound B189]
[III] C[C@@H](NC(=O)CN1Cc2c(ccc(C#N)c2F)NC1=O)c1ccc(C#N)cc1F [Compound B129]
Task for the reader: rank each entry by its Porcine Atria IC25, from the minimum upward. Write the labels out in the order the request specifies.
II, I, III

###

ASSAY TARGET: Porcine Ventricle myofibrils (left ventricle of Yucatan minipigs) (Sus scrofa, UniProt P79293)
Construct: Myofibrils from porcine cardiac muscle was isolated from the left ventricle of Yucatan minipigs; tissue Exemplar Genetics; host or cells: left ventricle of Yucatan minipigs
PROTOCOL: Myofibril ATPase assay (PK/LDH NADH-coupled), ventricle myofibrils
Format: biochemical
SETTINGS: Table 8
METRIC NAME: Porcine Ventricle IC25 (µM)

> print(dat)
                            compound.string  scale.unit  assay.result
1  Cc1cc(F)cc2c1NC(=O)N(CC(=O)N[C@H](C)c1ccc(C#N)cc1F)C2          µM          4.23
2  Cc1noc([C@H](C)NC(=O)CN2Cc3c(ccc(F)c3F)NC2=O)n1          µM           100
3  Cc1ncnc([C@H](C)NC(=O)CN2Cc3c(ccc(F)c3F)NC2=O)c1F          µM          8.84
4  Cc1nc(C#N)ncc1[C@@H](C)NC(=O)CN1Cc2c(ccc(F)c2F)NC1=O          µM        0.0599
5  O=C(CN1Cc2c(ccc(F)c2F)NC1=O)N[C@@H]1COCc2cc(F)cc(F)c21          µM        0.0415
6  C[C@@H](NC(=O)CN1Cc2c(F)cc(F)cc2NC1=O)c1ccc(C#N)cc1F          µM         3.177

[a] N#Cc1cc(F)c2c(c1)OC[C@@H]2NC(=O)CN1C(=O)Nc2cccc(C#N)c2C12CC2
[b] C[C@@H](NC(=O)CN1Cc2c(ccc(F)c2F)NC1=O)c1ncnc(C#N)c1F
Between a and b , whose recorded Porcine Ventricle IC25 is greater? Please respond with the label that marks your chosen entry.
a
(a: 3.96 µM, b: 0.35 µM)

###

ASSAY TARGET: Porcine Ventricle myofibrils (left ventricle of Yucatan minipigs) (Sus scrofa)
Construct: Myofibrils from porcine cardiac muscle was isolated from the left ventricle of Yucatan minipigs; tissue Exemplar Genetics; host or cells: left ventricle of Yucatan minipigs
PROTOCOL: Myofibril ATPase assay (PK/LDH NADH-coupled), ventricle myofibrils
Assay type: biochemical
SETTINGS: Table 8
METRIC NAME: Porcine Ventricle IC25 (µM)

See these solved cases before continuing.
> print(dat)
                                   compound  scale.unit  assay.result
1  O=C(CN1Cc2c(ccc(F)c2F)NC1=O)N[C@H]1COc2c(F)cc(F)cc2C1 [Compound B102]          µM         6.262
2  COc1cccnc1[C@@H](C)NC(=O)CN1Cc2cc(F)ccc2NC1=O [Compound B186]          µM           100
3  C[C@H](NC(=O)CN1C(=O)Nc2ccccc2[C@@H]1C)c1ncc(F)cc1F [Compound B162]          µM           100
4  C[C@@H](NC(=O)CN1Cc2c(C#N)cccc2NC1=O)c1ncc(F)cc1F [Compound B153]          µM           100
5  CC(NC(=O)CN1Cc2c(ccc(F)c2F)NC1=O)c1cc(C#N)c(F)cn1 (single isomer, unassigned) [Compound B53]          µM         7.534
6  C[C@H](NC(=O)CN1Cc2c(F)cccc2NC1=O)c1ccc(F)cc1F [Compound B248]          µM        0.2832
7  Cc1cc(C#N)cnc1[C@H](C)NC(=O)CN1Cc2c(ccc(F)c2F)NC1=O [Compound B9]          µM        0.0379
8  N#Cc1cnc2c(c1)CC[C@H]2NC(=O)CN1Cc2c(ccc(F)c2F)NC1=O [Compound B89]          µM        0.2469

[I] C[C@H](NC(=O)CN1C(=O)Nc2ccccc2[C@H]1C)c1ccc(F)cc1F [Compound B155]
[II] Cc1nc(C#N)cnc1[C@H](CO)NC(=O)CN1Cc2c(ccc(F)c2F)NC1=O [Compound B355]
[III] C[C@H](NC(=O)CN1C(=O)Nc2ccccc2C1(C)C)c1ccc(F)cc1F [Compound B245]
[IV] C[C@H](NC(=O)CN1Cc2cc(F)ccc2NC1=O)c1ncccc1F [Compound B174]
[V] C[C@H](NC(=O)CN1Cc2c(ccc(F)c2F)NC1=O)c1cc2cccnc2cn1 [Compound B271]
List these items ordered by Porcine Ventricle IC25, big to small. Provide the labels, sequenced as the question asks.
IV, V, III, I, II

[A] O=C(CN1Cc2c(ccc(F)c2F)NC1=O)N[C@H]1COc2cc(F)cnc21 [Compound B7]
[B] C[C@@H](NC(=O)CN1Cc2c(C#N)cccc2NC1=O)c1ncc(C#N)cc1F [Compound B125]
[C] C[C@@H](NC(=O)CN1Cc2c(ccc(F)c2F)NC1=O)c1ccc2ccccc2n1 [Compound B288]
[D] C[C@@H](NC(=O)CN1Cc2cc(F)cc(Cl)c2NC1=O)c1ccc(C#N)cc1F [Compound B40]
Give the ascending ranking of the items by reported Porcine Ventricle IC25. Respond with an ordered listing of the labels, as requested.
A, C, D, B
